assay-remarks: qHTS RealTime-Glo MT Cell Viability Assay in HEK293 cells - 24 hour (AID 1224886); note: nearly all actives have a fitted effect of over 50% in size
experimental-parameters: RealTime-Glo luminescence; series mostly up to 76.8 µM
Records with an inconclusive call do not appear. Activity calls are given as the source filed them. Calls come from the whole dose curve; as a rule, active = well fitted cell-killing curve with a large enough effect in the repeat runs; inconclusive = weak or mixed curves, or effect the other way; inactive = flat fitted curve, though single readings scatter.
Classes used: YES = active, NO = inactive

- compound: "Cc1cc(C)c(/C=C2\\C(=O)Nc3ccccc32)[nH]1"
  class-label: "NO"
- compound: "COc1ccc2c(c1)c(CC(=O)OC/C=C(\\C)CC/C=C(\\C)CCC=C(C)C)c(C)n2C(=O)c1ccc(Cl)cc1"
  class-label: "NO"
- compound: "OC1CCC(C2CCCCC2)CC1 (stereo not given)"
  class-label: "NO"
- compound: "Cc1cccc2cccnc12"
  class-label: "NO"
- compound: "O=C(O)Cc1ccccc1Nc1c(Cl)cccc1Cl"
  class-label: "NO"
- compound: "Nc1nc2c(ncn2COCCO)c(=O)[nH]1"
  class-label: "NO"
- compound: "COC1=C(OC)C(=O)C(CCCCCCCCCCO)=C(C)C1=O"
  class-label: "YES"
- compound: "O=C(/C=C/c1ccccc1)OC/C=C/c1ccccc1"
  class-label: "NO"
- compound: "NC(=S)NC(N)=S"
  class-label: "NO"
- compound: "Sc1nc2ccccc2s1"
  class-label: "NO"
- compound: "FC(F)(F)c1cccc(Cl)c1"
  class-label: "NO"
- compound: "C=C(C)c1cccc(C(=C)C)c1"
  class-label: "NO"
- compound: "CCN(CCN)c1cccc(C)c1"
  class-label: "NO"
- compound: "OC[C@H]1O[C@H](O[C@H]2O[C@H](CO)[C@@H](O)[C@H](O)[C@H]2O)[C@H](O)[C@@H](O)[C@@H]1O"
  class-label: "NO"
- compound: "ClCCl"
  class-label: "NO"
- compound: "C#C[C@]1(OC(C)=O)CC[C@H]2[C@@H]3CCC4=C/C(=N/O)CC[C@@H]4[C@H]3CC[C@@]21CC"
  class-label: "YES"
- compound: "CCC(C)[O-].CCC(C)[O-].CCOC(=O)/C=C(/C)[O-].[Al+3]"
  class-label: "NO"
- compound: "C=CCn1c(=O)n(CC=C)c(=O)n(CC=C)c1=O"
  class-label: "NO"
- compound: "CC1=CCC(=C(C)C)CC1"
  class-label: "NO"
- compound: "S=c1nccc[nH]1"
  class-label: "NO"

----------
measured-on: Nuclear receptor subfamily 1 group I member 2 (Homo sapiens)
assay-remarks: Human pregnane X receptor (PXR) activation by small molecules, qHTS assay (AID 1346985); note: nearly all actives have a fitted effect of over 40% in size
experimental-parameters: DPX-2 HepG2 CYP3A4-luciferase, 24 h; series mostly up to 38.3 µM
Results filed as inconclusive are left out. The source made the active and inactive calls. Calls follow the shape of the dose curve; as a rule, active = well fitted activation curve with a large enough effect in the repeat runs; inconclusive = weak or mixed curves; inactive = flat fitted curve, though single readings scatter.
property-name: outcome

- smiles-input: "CN(C)c1ccc(C(=C2C=CC(=[N+](C)C)C=C2)c2ccc(N(C)C)cc2)cc1"
  property-name: "outcome"
  observed-value: "inactive"
- smiles-input: "COC1=C(OC)C(=O)C(CCCCCCCCCCO)=C(C)C1=O"
  property-name: "outcome"
  observed-value: "inactive"
- smiles-input: "CCOc1ccc2ccccc2c1C(=O)N[C@@H]1C(=O)N2[C@@H]1SC(C)(C)[C@@H]2C(=O)O"
  property-name: "outcome"
  observed-value: "inactive"
